Values from patent US7056679

# STUDY TARGET: T1, DGI-2 (UniProt Q15004 1-111, limits assumed)
# T1 construct: Soluble recombinant DGI-2 made by in vitro translation (RTS, pIVEX2.3-MCS vector) and coated on plates for the ELISA; vector tag not described; also called KIAA0101; DGI-2 polypeptide
# T1 sequence (looked up): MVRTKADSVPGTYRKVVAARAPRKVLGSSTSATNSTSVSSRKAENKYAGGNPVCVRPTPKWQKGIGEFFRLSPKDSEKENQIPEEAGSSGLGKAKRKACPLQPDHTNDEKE
# EXPERIMENTAL DETAILS: phage ELISA, coated DGI-2
No end group written: not given here.
RECORDED ENDPOINT: binding result

SLLCVVCRPVSGGRALGGVP (not fully specified; cysteine pairing not given here, on M13 phage, pIII fusion with E-tag) [DGI-2-20F-PP-B42] :: binds
VHSQGRMWAIPGLRGGTGAS (on M13 phage, pIII fusion with E-tag) [DGI-2-20R-3-D7] :: binds
TVKFQGVVQERSRIAGFRYCGDHAVSWGLAGCPALRDKLQ (on M13 phage, pIII fusion with E-tag) [DGI-2-40F-3-C424] :: binds
